test method notes: xn = mol fraction of the nth substance listed
measurement context: 308.15 K; 103 kPa; x1 = 0.45
Task for the reader: assign each of the following compounds its reported viscosity.
Give a bare numeral; the unit mPa·s is implied.

Give the reported value of viscosity for this record: C[Si]1(C)O[Si](C)(C)O[Si](C)(C)O[Si](C)(C)O1 + CCCCCCCCCCCCC
1.366

Give the reported value of viscosity for this record: C[Si]1(C)O[Si](C)(C)O[Si](C)(C)O[Si](C)(C)O1 + CCCCCCCCCCCC
1.225

Give the reported value of viscosity for this record: C[Si]1(C)O[Si](C)(C)O[Si](C)(C)O[Si](C)(C)O1 + CCCCCCCCCCCCCC
1.509

Give the reported value of viscosity for this record: C[Si]1(C)O[Si](C)(C)O[Si](C)(C)O[Si](C)(C)O1 + CCCCCCCCCC
0.964

----------
measurement context: 293.15 K; 101 kPa
metric: viscosity (mPa·s)
Give a bare numeral; the unit mPa·s is implied.

Give the reported value of viscosity for this record: CCNc1ccccc1
2.282

Give the reported value of viscosity for this record: CCCCCC[n+]1ccn(C)c1.[I-]
2633

Give the reported value of viscosity for this record: ClCCl
0.428

Give the reported value of viscosity for this record: O=S(=O)(O)O
28.7

Give the reported value of viscosity for this record: CCOC=O
0.418

Give the reported value of viscosity for this record: ClCCCl
0.8397

----------
test method notes: xn = mol fraction of the nth substance listed
measurement context: 308.15 K; 103 kPa; x1 = 0.05
metric: viscosity (mPa·s)
Give a bare numeral; the unit mPa·s is implied.

Give the reported value of viscosity for this record: C[Si]1(C)O[Si](C)(C)O[Si](C)(C)O[Si](C)(C)O1 + CCCCCCCCCC
0.733

Give the reported value of viscosity for this record: C[Si]1(C)O[Si](C)(C)O[Si](C)(C)O[Si](C)(C)O1 + CCCCCCCCCCCCCC
1.605

Give the reported value of viscosity for this record: C[Si]1(C)O[Si](C)(C)O[Si](C)(C)O[Si](C)(C)O1 + CCCCCCCCCCCCC
1.351

Give the reported value of viscosity for this record: C[Si]1(C)O[Si](C)(C)O[Si](C)(C)O[Si](C)(C)O1 + CCCCCCCCCCCC
1.107

----------
test method notes: xn = mol fraction of the nth substance listed
measurement context: 318.15 K; 103 kPa; x1 = 0.5
± gives the uncertainty stated by the source.
metric: viscosity
Just the number plus its unit, please.

Give the reported value of viscosity for this record: C[Si]1(C)O[Si](C)(C)O[Si](C)(C)O[Si](C)(C)O1 + CCCCCCCCCCCCCC
1.273 ± 0.041 mPa·s

Give the reported value of viscosity for this record: C[Si]1(C)O[Si](C)(C)O[Si](C)(C)O[Si](C)(C)O1 + CCCCCCCCCCCCC
1.167 ± 0.041 mPa·s

Give the reported value of viscosity for this record: C[Si]1(C)O[Si](C)(C)O[Si](C)(C)O[Si](C)(C)O1 + CCCCCCCCCCCC
1.068 ± 0.041 mPa·s

Give the reported value of viscosity for this record: C[Si]1(C)O[Si](C)(C)O[Si](C)(C)O[Si](C)(C)O1 + CCCCCCCCCC
0.867 ± 0.041 mPa·s

----------
Task for the reader: assign each of the following molecules its reported viscosity.
test method notes: xn = mol fraction of the nth substance listed
measurement context: 298.15 K; 103 kPa; x1 = 0.2
± gives the uncertainty stated by the source.
Just the number plus its unit, please.

Give the reported value of viscosity for this record: C[Si]1(C)O[Si](C)(C)O[Si](C)(C)O[Si](C)(C)O1 + CCCCCCCCCCCCC
1.602 ± 0.042 mPa·s

Give the reported value of viscosity for this record: C[Si]1(C)O[Si](C)(C)O[Si](C)(C)O[Si](C)(C)O1 + CCCCCCCCCCCCCC
1.859 ± 0.042 mPa·s

Give the reported value of viscosity for this record: C[Si]1(C)O[Si](C)(C)O[Si](C)(C)O[Si](C)(C)O1 + CCCCCCCCCC
0.931 ± 0.041 mPa·s

Give the reported value of viscosity for this record: C[Si]1(C)O[Si](C)(C)O[Si](C)(C)O[Si](C)(C)O1 + CCCCCCCCCCCC
1.352 ± 0.041 mPa·s

----------
Task for the reader: assign each of the following compounds its reported viscosity.
test method notes: xn = mol fraction of the nth substance listed
measurement context: 298.15 K; 103 kPa; x1 = 0.45
Give a bare numeral; the unit mPa·s is implied.

Give the reported value of viscosity for this record: C[Si]1(C)O[Si](C)(C)O[Si](C)(C)O[Si](C)(C)O1 + CCCCCCCCCC
1.134

Give the reported value of viscosity for this record: C[Si]1(C)O[Si](C)(C)O[Si](C)(C)O[Si](C)(C)O1 + CCCCCCCCCCCCC
1.636

Give the reported value of viscosity for this record: C[Si]1(C)O[Si](C)(C)O[Si](C)(C)O[Si](C)(C)O1 + CCCCCCCCCCCC
1.454

Give the reported value of viscosity for this record: C[Si]1(C)O[Si](C)(C)O[Si](C)(C)O[Si](C)(C)O1 + CCCCCCCCCCCCCC
1.82

----------
test method notes: xn = mol fraction of the nth substance listed
measurement context: 298.15 K; 101 kPa; x2 = 0.8
metric: viscosity (mPa·s)
Give a bare numeral; the unit mPa·s is implied.

Give the reported value of viscosity for this record: ClCCCl + c1ccccc1
0.59

Give the reported value of viscosity for this record: ClCCl + CCCCC
0.232

Give the reported value of viscosity for this record: ClCCl + CCCO
1.455

Give the reported value of viscosity for this record: ClCCl + CC(C)O
1.167

Give the reported value of viscosity for this record: CC(=O)O + CS(C)=O
2.231

----------
Task for the reader: assign each of the following molecules its reported viscosity.
test method notes: xn = mol fraction of the nth substance listed
measurement context: 298.15 K; 103 kPa; x1 = 0.3
Give a bare numeral; the unit mPa·s is implied.

Give the reported value of viscosity for this record: C[Si]1(C)O[Si](C)(C)O[Si](C)(C)O[Si](C)(C)O1 + CCCCCCCCCCCCC
1.608

Give the reported value of viscosity for this record: C[Si]1(C)O[Si](C)(C)O[Si](C)(C)O[Si](C)(C)O1 + CCCCCCCCCC
1.007

Give the reported value of viscosity for this record: C[Si]1(C)O[Si](C)(C)O[Si](C)(C)O[Si](C)(C)O1 + CCCCCCCCCCCCCC
1.843

Give the reported value of viscosity for this record: C[Si]1(C)O[Si](C)(C)O[Si](C)(C)O[Si](C)(C)O1 + CCCCCCCCCCCC
1.384

----------
test method notes: xn = mol fraction of the nth substance listed
measurement context: 318.15 K; 103 kPa; x1 = 0.05
metric: viscosity (mPa·s)
Give a bare numeral; the unit mPa·s is implied.

Give the reported value of viscosity for this record: C[Si]1(C)O[Si](C)(C)O[Si](C)(C)O[Si](C)(C)O1 + CCCCCCCCCC
0.645

Give the reported value of viscosity for this record: C[Si]1(C)O[Si](C)(C)O[Si](C)(C)O[Si](C)(C)O1 + CCCCCCCCCCCC
0.951

Give the reported value of viscosity for this record: C[Si]1(C)O[Si](C)(C)O[Si](C)(C)O[Si](C)(C)O1 + CCCCCCCCCCCCC
1.145

Give the reported value of viscosity for this record: C[Si]1(C)O[Si](C)(C)O[Si](C)(C)O[Si](C)(C)O1 + CCCCCCCCCCCCCC
1.347

----------
test method notes: xn = mol fraction of the nth substance listed
measurement context: 308.15 K; 103 kPa; x1 = 0.2
± gives the uncertainty stated by the source.
Task for the reader: assign each of the following compounds its reported viscosity.

Give the reported value of viscosity for this record: C[Si]1(C)O[Si](C)(C)O[Si](C)(C)O[Si](C)(C)O1 + CCCCCCCCCC
0.801 ± 0.04 mPa·s

Give the reported value of viscosity for this record: C[Si]1(C)O[Si](C)(C)O[Si](C)(C)O[Si](C)(C)O1 + CCCCCCCCCCCCCC
1.536 ± 0.042 mPa·s

Give the reported value of viscosity for this record: C[Si]1(C)O[Si](C)(C)O[Si](C)(C)O[Si](C)(C)O1 + CCCCCCCCCCCC
1.141 ± 0.041 mPa·s

Give the reported value of viscosity for this record: C[Si]1(C)O[Si](C)(C)O[Si](C)(C)O[Si](C)(C)O1 + CCCCCCCCCCCCC
1.338 ± 0.042 mPa·s

----------
Task for the reader: assign each of the following molecules its reported viscosity.
test method notes: xn = mol fraction of the nth substance listed
measurement context: 308.15 K; 103 kPa; x1 = 0.85
Give a bare numeral; the unit mPa·s is implied.

Give the reported value of viscosity for this record: C[Si]1(C)O[Si](C)(C)O[Si](C)(C)O[Si](C)(C)O1 + CCCCCCCCCC
1.423

Give the reported value of viscosity for this record: C[Si]1(C)O[Si](C)(C)O[Si](C)(C)O[Si](C)(C)O1 + CCCCCCCCCCCCCC
1.6

Give the reported value of viscosity for this record: C[Si]1(C)O[Si](C)(C)O[Si](C)(C)O[Si](C)(C)O1 + CCCCCCCCCCCCC
1.572

Give the reported value of viscosity for this record: C[Si]1(C)O[Si](C)(C)O[Si](C)(C)O[Si](C)(C)O1 + CCCCCCCCCCCC
1.523
